Data provenance: patent US5534498A

molecular target: bovine thrombin (Bos taurus, UniProt P00735); construct: 50 μL 20 nM bovine thrombin; assay: Thrombin assay (S-2238 substrate); format: biochemical; settings: [IC50 for Trypsin/IC50 for other enzyme]×100; lower = more trypsin selective
Non-standard residues stand in square brackets, D forms with d. Residues, ends and D or L forms follow the SMILES beside them. *: point of attachment. Boc = CC(C)(C)OC(=O)*
endpointName: Calculated % Selectivity Thrombin (%)

> print(dat)
                                   molecule  unitstring  measurement
1  CC(C)(C)OC(=O)N[C@@H](CC(=O)O)C(=O)N1CCC[C@H]1C(=O)N[C@H](C=O)CCCNC(=N)N [Compound 9] (Boc-Asp-Pro-Arg-aldehyde)           %         0.08

a. CC(C)(C)OC(=O)N[C@H](CC(=O)O)C(=O)N1CCC[C@H]1C(=O)N[C@H](C=O)CCCNC(=N)N [Compound 12] (Boc-[dD]-Pro-Arg-aldehyde)
b. CC(C)(C)OC(=O)N[C@@H](CCC(=O)O)C(=O)N1CCC[C@H]1C(=O)N[C@H](C=O)CCCNC(=N)N [Compound 8] (Boc-Glu-Pro-Arg-aldehyde)
**Q:** For the two items a and b , which reports the higher Calculated % Selectivity Thrombin value? # reply format: chosen label
**A:** b
(b: 0.04%, a: 0%)

----------
Target: human Factor Xa (Homo sapiens, UniProt P00742)
Construct: 50 μL 30 nM human Factor Xa
Sequence (P00742 235-488 limits assumed): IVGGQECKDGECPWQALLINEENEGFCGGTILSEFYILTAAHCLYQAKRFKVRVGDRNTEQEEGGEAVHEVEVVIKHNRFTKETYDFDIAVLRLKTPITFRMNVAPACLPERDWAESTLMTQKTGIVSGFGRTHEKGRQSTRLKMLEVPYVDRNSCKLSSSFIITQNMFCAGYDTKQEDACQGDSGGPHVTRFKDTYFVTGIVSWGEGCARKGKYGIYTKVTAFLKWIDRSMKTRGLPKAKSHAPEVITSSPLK
Sequence (P00742 41-179 partner limits assumed): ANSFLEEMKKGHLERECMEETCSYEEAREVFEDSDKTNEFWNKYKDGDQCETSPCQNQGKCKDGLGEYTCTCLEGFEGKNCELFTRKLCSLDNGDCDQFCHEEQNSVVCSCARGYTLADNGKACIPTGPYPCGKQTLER
Assay: Factor Xa assay (Pefachrome Xa substrate)
Format: biochemical
Details: [IC50 for Trypsin/IC50 for other enzyme]×100; lower = more trypsin selective
Method: The specificity of the peptide aldehydes (8 through 12) was determined in vitro by measurement of their IC50 against other enzymes involved in hemostasis. […] Enzyme activity was determined using as substrate, Pefachrome Xa [N-methoxycarbonyl-D-cyclohexylalanyl-L-glycyl-L-arginine p-niroanilide acetate], purchased from Centerchem, Inc. The substrate was made up in deionized water prior to use.
Non-standard residues stand in square brackets, D forms with d. Residues, ends and D or L forms follow the SMILES beside them. *: point of attachment. Boc = CC(C)(C)OC(=O)*
endpointName: Calculated % Selectivity Xa

Some compounds with known Calculated % Selectivity Xa results, for comparison:
> print(dat)
                                   compound  measurement
1  CC(C)COC(=O)NC(CC(=O)O)C(=O)N1CCCC1C(=O)NC(C=O)CCCN=C(N)N (centres unmarked)       < 1.3%
2  CC(C)(C)OC(=O)N[C@@H](CC(=O)O)C(=O)N1CCC[C@H]1C(=O)N[C@H](C=O)CCCNC(=N)N [Compound 9] (Boc-Asp-Pro-Arg-aldehyde)      < 0.06%
3  N=C(N)NCCC[C@@H](C=O)NC(=O)[C@@H]1CCCN1C(=O)[C@H](CC(=O)O)NC(=O)OC12CC3CC(CC(C3)C1)C2      < 0.83%
4  CC(C)(C)OC(=O)N[C@H](CC(=O)O)C(=O)N1CCC[C@H]1C(=O)N[C@H](C=O)CCCNC(=N)N [Compound 12] (Boc-[dD]-Pro-Arg-aldehyde)      < 0.34%

Next compound, please.
Field Calculated % Selectivity Xa (entry CC(C)(C)OC(=O)N[C@@H](CCC(=O)O)C(=O)N1CCC[C@H]1C(=O)N[C@H](C=O)CCCNC(=N)N [Compound 8] (Boc-Glu-Pro-Arg-aldehyde) ) reads 0%

----------
target: bovine thrombin (Bos taurus)
Residues, ends and D or L forms follow the SMILES beside them. *: point of attachment. Boc = CC(C)(C)OC(=O)*
endpointName: IC50 (µM)

Some compounds with known IC50 results, for comparison:
> print(dat)
                                   compound                   studysystem  measurement
1  CCOC(=O)c1ccc(OC(=O)CCCCCN=C(N)N)cc1.CS(=O)(=O)O [FOY, gabexate mesilate, reference compound]  bovine thrombin (Bos taurus)            6
2  CC(C)(C)OC(=O)N[C@@H](CC(=O)O)C(=O)N1CCC[C@H]1C(=O)N[C@H](C=O)CCCNC(=N)N [Compound 9] (Boc-Asp-Pro-Arg-aldehyde)  bovine thrombin (Bos taurus)           17

1. CC(C)(C)OC(=O)N[C@@H](CCC(=O)O)C(=O)N1CCC[C@H]1C(=O)N[C@H](C=O)CCCNC(=N)N [Compound 8] (Boc-Glu-Pro-Arg-aldehyde)
2. N=C(N)c1ccc2cc(OC(=O)c3ccc(N=C(N)N)cc3)ccc2c1 [Futhan, reference compound]
3. CC(=O)N[C@@H](CC(C)C)C(=O)N[C@@H](CC(C)C)C(=O)N[C@H](C=O)CCCNC(=N)N [Leupeptin, reference compound]
**Q:** Rank entries according to their IC50, from the largest number down. # the answer lists labels in the order requested
**A:** 3, 1, 2
(3: 20 µM, 1: 14 µM, 2: 0.21 µM)

----------
target: Activated human Protein C (Homo sapiens); assay: Protein C assay (Pefachrome PC substrate); conditions: 30 min preincubation, room temperature; tested 0.025-25 μM; Inact. = no inhibition at highest concentration
Sequence (P04070 212-461 limits assumed): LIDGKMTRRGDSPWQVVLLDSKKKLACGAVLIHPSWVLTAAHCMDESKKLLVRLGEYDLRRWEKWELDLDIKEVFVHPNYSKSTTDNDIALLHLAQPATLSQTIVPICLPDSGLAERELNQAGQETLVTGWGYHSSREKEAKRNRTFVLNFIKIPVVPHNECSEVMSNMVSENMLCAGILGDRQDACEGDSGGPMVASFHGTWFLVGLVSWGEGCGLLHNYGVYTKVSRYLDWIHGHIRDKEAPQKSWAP
Sequence (P04070 43-197 partner limits assumed): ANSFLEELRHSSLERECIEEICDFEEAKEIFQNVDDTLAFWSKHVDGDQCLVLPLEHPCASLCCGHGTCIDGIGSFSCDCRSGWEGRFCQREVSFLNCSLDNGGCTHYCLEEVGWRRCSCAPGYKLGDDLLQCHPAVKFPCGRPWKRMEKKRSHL
endpointName: IC50

Some compounds with known IC50 results, for comparison:
> print(dat)
                                   compound                               studysystem  measurement
1  CC(=O)N[C@@H](CC(C)C)C(=O)N[C@@H](CC(C)C)C(=O)N[C@H](C=O)CCCNC(=N)N [Leupeptin, reference compound]  Activated human Protein C (Homo sapiens)      > 25 µM
2  CC(C)COC(=O)NC(CC(=O)O)C(=O)N1CCCC1C(=O)NC(C=O)CCCN=C(N)N (stereo not drawn)  Activated human Protein C (Homo sapiens)      > 25 µM

Next compound, please.
Field IC50 (entry CCOC(=O)c1ccc(OC(=O)CCCCCN=C(N)N)cc1.CS(=O)(=O)O [FOY, gabexate mesilate, reference compound] ) reads 15 µM

----------
Listing: pIC50 of selected molecules
biological target: recombinant tissue plasminogen activator (Homo sapiens, UniProt P00750); test: Tissue plasminogen activator assay (S-2288 substrate); details: 30 min preincubation, room temperature; tested 0.025-25 μM; Inact. = no inhibition at highest concentration
Sequence (P00750 36-562): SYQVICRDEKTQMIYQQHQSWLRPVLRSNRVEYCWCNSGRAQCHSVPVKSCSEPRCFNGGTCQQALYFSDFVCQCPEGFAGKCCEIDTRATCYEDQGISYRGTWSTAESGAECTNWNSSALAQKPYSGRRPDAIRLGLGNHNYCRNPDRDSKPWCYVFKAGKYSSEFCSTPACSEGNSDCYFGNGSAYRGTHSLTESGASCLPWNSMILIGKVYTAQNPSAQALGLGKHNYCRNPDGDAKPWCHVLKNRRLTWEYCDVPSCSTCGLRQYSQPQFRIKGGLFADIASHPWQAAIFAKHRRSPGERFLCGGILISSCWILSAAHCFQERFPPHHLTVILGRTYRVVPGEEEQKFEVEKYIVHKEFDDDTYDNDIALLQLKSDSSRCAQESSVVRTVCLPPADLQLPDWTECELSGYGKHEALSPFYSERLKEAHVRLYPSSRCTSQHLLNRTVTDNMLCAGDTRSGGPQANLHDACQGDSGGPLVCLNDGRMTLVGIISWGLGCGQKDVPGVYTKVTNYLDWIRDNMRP
// scale note: pIC50 = -log10(conc_M); give the bare number

> print(dat)
                                   molecule                               studysystem  measurement
1  N=C(N)c1ccc2cc(OC(=O)c3ccc(N=C(N)N)cc3)ccc2c1 [Futhan, reference compound]  recombinant tissue plasminogen activator (Homo sapiens, UniProt P00750)         6.43

Next molecule, please.
Field pIC50 (entry CCOC(=O)c1ccc(OC(=O)CCCCCN=C(N)N)cc1.CS(=O)(=O)O [FOY, gabexate mesilate, reference compound] ) reads 5.05

----------
target: Activated human Protein C (Homo sapiens); construct: from tissue; experiment: Protein C assay (Pefachrome PC substrate); type: biochemical; conditions: [IC50 for Trypsin/IC50 for other enzyme]×100; lower = more trypsin selective
Residues, ends and D or L forms follow the SMILES beside them. *: point of attachment. Boc = CC(C)(C)OC(=O)*
endpointName: Calculated % Selectivity Protein C (%)

> print(dat)
                                   molecule                               studysystem  unitstring  measurement
1  CC(C)(C)OC(=O)N[C@@H](CC(=O)O)C(=O)N1CCC[C@H]1C(=O)N[C@H](C=O)CCCNC(=N)N [Compound 9] (Boc-Asp-Pro-Arg-aldehyde)  Activated human Protein C (Homo sapiens)           %            0
2  CC(C)(C)OC(=O)N[C@@H](CCC(=O)O)C(=O)N1CCC[C@H]1C(=O)N[C@H](C=O)CCCNC(=N)N [Compound 8] (Boc-Glu-Pro-Arg-aldehyde)  Activated human Protein C (Homo sapiens)           %            0

----------
biological target: human kallekrein (Homo sapiens, UniProt P03952); construct: 50 μL of 4 to 9 nM human kallekrein; test: Kallikrein assay (S-2302 substrate); type: biochemical; settings: [IC50 for Trypsin/IC50 for other enzyme]×100; lower = more trypsin selective
Sequence (P03952 391-638 limits assumed): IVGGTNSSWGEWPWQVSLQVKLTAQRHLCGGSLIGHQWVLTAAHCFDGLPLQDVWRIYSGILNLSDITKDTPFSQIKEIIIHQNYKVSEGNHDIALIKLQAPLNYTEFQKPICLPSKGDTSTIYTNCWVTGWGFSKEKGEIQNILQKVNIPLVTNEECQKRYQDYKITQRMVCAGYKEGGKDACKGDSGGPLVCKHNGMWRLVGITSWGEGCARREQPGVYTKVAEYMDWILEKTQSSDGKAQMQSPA
Sequence (P03952 20-390 partner limits assumed): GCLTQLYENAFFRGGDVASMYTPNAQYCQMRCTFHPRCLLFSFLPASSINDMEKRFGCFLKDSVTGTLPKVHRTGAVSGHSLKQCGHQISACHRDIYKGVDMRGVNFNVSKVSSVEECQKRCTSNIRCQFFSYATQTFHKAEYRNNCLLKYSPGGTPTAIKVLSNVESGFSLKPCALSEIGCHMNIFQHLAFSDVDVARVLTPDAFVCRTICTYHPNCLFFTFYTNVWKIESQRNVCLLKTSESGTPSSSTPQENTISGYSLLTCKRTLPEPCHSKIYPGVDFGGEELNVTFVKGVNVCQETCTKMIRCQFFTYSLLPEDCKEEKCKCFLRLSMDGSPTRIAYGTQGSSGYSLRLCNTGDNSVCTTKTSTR
Residues, ends and D or L forms follow the SMILES beside them. *: point of attachment. Boc = CC(C)(C)OC(=O)*
endpointName: Calculated % Selectivity Kallikrein (%)

> print(dat)
                                   compound  measurement
1  CC(C)(C)OC(=O)N[C@@H](CC(=O)O)C(=O)N1CCC[C@H]1C(=O)N[C@H](C=O)CCCNC(=N)N [Compound 9] (Boc-Asp-Pro-Arg-aldehyde)         0.08
2  CC(C)(C)OC(=O)N[C@@H](CCC(=O)O)C(=O)N1CCC[C@H]1C(=O)N[C@H](C=O)CCCNC(=N)N [Compound 8] (Boc-Glu-Pro-Arg-aldehyde)         0.10
